Tested on: P388 leukemia ip, CD2F1 mice, survival T/C
PROTOCOL TEXT: NCI In Vivo Anticancer Drug Screen. Data for tumor model P388 Leukemia (intraperitoneal) in CD2F1 (CDF1) mice
ASSAY SETUP: endpoint: median survival time; dose: 120.0 mg/kg/injection; schedule: Q01DX005 (ip); vehicle: saline; higher = longer survival
Inconclusive results and toxic doses are left out.
ATTRIBUTE MEASURED: T/C

COMPOUND	TARGET UNDER TEST	OBSERVED VALUE
CC(=O)N(c1c(N)[nH]c(=O)n(C)c1=O)C1OC(CO)C(O)C(O)C1O (centres undefined)	P388 leukemia ip, CD2F1 mice, survival T/C	99 % of control
BrCC1CN=C(c2ccccc2)O1 (centres undefined)	P388 leukemia ip, CD2F1 mice, survival T/C	101 % of control
CC(=O)N(C)c1ccc(Nc2cc(S(=O)(=O)O)c(N)c3c2C(=O)c2ccccc2C3=O)cc1	P388 leukemia ip, CD2F1 mice, survival T/C	100 % of control
CN1C(C)(C)CC(O)CC1(C)C	P388 leukemia ip, CD2F1 mice, survival T/C	102 % of control
NC(N)=N/N=C/C(O)C(O)C(O)C(O)CO (centres undefined)	P388 leukemia ip, CD2F1 mice, survival T/C	100 % of control
[CH3][Sb]([CH3])[O][Sb]([CH3])[CH3]	P388 leukemia ip, CD2F1 mice, survival T/C	111 % of control
CN(C)CCC(=O)C(=Cc1ccccc1Cl)C(=O)CCN(C)C	P388 leukemia ip, CD2F1 mice, survival T/C	106 % of control
CSc1ncc(/C(C)=N\N=C(N)N)c(C)n1	P388 leukemia ip, CD2F1 mice, survival T/C	99 % of control
CC1(C)OCC(N)[C@@H](O)CO1 (some centres undefined)	P388 leukemia ip, CD2F1 mice, survival T/C	96 % of control
